For each record, write down the corresponding IC50.
- Tested on: E. coli BW25113 ΔtolC growth inhibition, OD615
- experimental-protocol: growth inhibitors of E. coli tolC mutant, dose response, strain BW25113 ΔtolC::kan (AID 617);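 note: growth read after 20 h at 37 °C with compound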

Hi! What's the reported IC50 for N#Cc1nc(-c2ccc(OCc3ccccc3Cl)cc2)oc1NCCCn1ccnc1 on E. coli BW25113 ΔtolC growth inhibition, OD615? 5.13 µM

Please answer likewise for Cc1ccc(-c2noc(CCC(=O)N3CCCc4ccccc43)n2)cc1 12.8 µM

Please answer likewise for CCOC(=O)Nc1ccc2c(c1)N(C(=O)N1CCN(C)CC1)c1ccccc1S2 36.9 µM

Please answer likewise for c1ccc(Nc2nc(-c3cccs3)cs2)nc1 12.9 µM

Please answer likewise for CC1(C)COCN1S(=O)(=O)c1ccc(C(=O)Nc2nnc(-c3ccc(Cl)s3)o2)cc1 < 0.2 µM

Please answer likewise for c1ccc(N2CCN(c3ncnc4c3oc3ccccc34)CC2)cc1 40.5 µM

Please answer likewise for CCN(CC)c1ccc(C(=O)n2cnc3ccccc32)cc1 15 µM

Please answer likewise for CCCc1ccc(Oc2cn[nH]c2-c2ccc(O)c(C)c2O)cc1 1.84 µM

Please answer likewise for N=c1c2c(-c3ccccc3)c(-c3ccccc3)n(Cc3ccco3)c2ncn1Cc1ccco1 4.32 µM

Please answer likewise for CN(C)C1(c2nnnn2CCOC(=O)Nc2ccc(Cl)cc2)CCCCC1 8.24 µM

Please answer likewise for CC(C)Cn1c(N)c(C(=O)NCc2cccs2)c2nc3ccccc3nc21 12.9 µM

###

- Test system: E. coli BW25113 ΔtolC growth inhibition, OD615
- experimental-protocol: growth inhibitors of E. coli tolC mutant, dose response, strain BW25113 ΔtolC::kan (AID 617);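 note: growth read after 20 h at 37 °C with compound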
pIC50: −log10 of the molar value.
Could you label it 1 if measured pIC50 is 5 or higher, and 0 otherwise?

Answer whether pIC50 of Cc1nc2c(-c3ccccc3)c(C)[nH]n2c(=O)c1Cl is greater than or equal to 5. 1

Please answer likewise for Cc1cc(C)c2cc(CN(CCO)C(c3nnnn3Cc3ccc(F)cc3)C(C)C)c(=O)[nH]c2c1 (stereo unspecified) 0

Please answer likewise for O=C(COc1ccccc1)Nc1nnc(-c2ccc(Cl)s2)o1 1

Please answer likewise for O=C(OC1CCc2ccccc2C1=O)c1ccccc1O (stereo unspecified) 0

Please answer likewise for Cc1cc(=O)[nH]c(-n2nc(C)cc2C)n1 1

Please answer likewise for COC(=O)c1sccc1NC(=O)c1cc2c(s1)CCCC2 1

Please answer likewise for Cc1cccc(C)c1NC(=O)C(c1cccs1)N(Cc1ccco1)C(=O)Cn1nnc2ccccc21 (stereo unspecified) 0

Please answer likewise for CN(c1ccccc1)c1nc(N2CCCC2)nc(-n2ccnc2)n1 1

###

- System: E. coli BW25113 ΔtolC growth inhibition, OD615
- experimental-protocol: growth inhibitors of E. coli tolC mutant, dose response, strain BW25113 ΔtolC::kan (AID 617);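 note: growth read after 20 h at 37 °C with compound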
measured-property: pIC50
Recall that pIC50 is obtained by taking minus log10 of the concentration measured in molar.

Need pIC50 of CCOC(=O)c1cnc(-n2nc(C)cc2C)nc1NC(C)c1ccccc1 (stereo unspecified) , thanks. 5.56

Please answer likewise for N=c1n(Cc2ccccc2)c2ccccc2n1CC(O)COc1ccccc1 (stereo unspecified) 4.67

Please answer likewise for Clc1ccc(Cn2ncc3c(NCc4ccco4)ncnc32)c(Cl)c1 4.27

Please answer likewise for CCc1ccccc1NS(=O)(=O)c1ccc2[nH]cc(C(=O)NCc3ccco3)c(=O)c2c1 4.66

Please answer likewise for CCOC(=O)c1[nH]c2ccc(F)cc2c1NC(=O)CN1CCN(C/C=C/c2ccccc2)CC1 4.83

Please answer likewise for COC(=O)c1ccccc1NC(=O)c1ccc2c(c1)OCCO2 4.66
